Reported pKi is given for each of the following molecules.
# MEASUREMENT TARGET: recombinant human enteropeptidase (Homo sapiens (Human), UniProt P98073)
# Sequence (P98073 whole entry): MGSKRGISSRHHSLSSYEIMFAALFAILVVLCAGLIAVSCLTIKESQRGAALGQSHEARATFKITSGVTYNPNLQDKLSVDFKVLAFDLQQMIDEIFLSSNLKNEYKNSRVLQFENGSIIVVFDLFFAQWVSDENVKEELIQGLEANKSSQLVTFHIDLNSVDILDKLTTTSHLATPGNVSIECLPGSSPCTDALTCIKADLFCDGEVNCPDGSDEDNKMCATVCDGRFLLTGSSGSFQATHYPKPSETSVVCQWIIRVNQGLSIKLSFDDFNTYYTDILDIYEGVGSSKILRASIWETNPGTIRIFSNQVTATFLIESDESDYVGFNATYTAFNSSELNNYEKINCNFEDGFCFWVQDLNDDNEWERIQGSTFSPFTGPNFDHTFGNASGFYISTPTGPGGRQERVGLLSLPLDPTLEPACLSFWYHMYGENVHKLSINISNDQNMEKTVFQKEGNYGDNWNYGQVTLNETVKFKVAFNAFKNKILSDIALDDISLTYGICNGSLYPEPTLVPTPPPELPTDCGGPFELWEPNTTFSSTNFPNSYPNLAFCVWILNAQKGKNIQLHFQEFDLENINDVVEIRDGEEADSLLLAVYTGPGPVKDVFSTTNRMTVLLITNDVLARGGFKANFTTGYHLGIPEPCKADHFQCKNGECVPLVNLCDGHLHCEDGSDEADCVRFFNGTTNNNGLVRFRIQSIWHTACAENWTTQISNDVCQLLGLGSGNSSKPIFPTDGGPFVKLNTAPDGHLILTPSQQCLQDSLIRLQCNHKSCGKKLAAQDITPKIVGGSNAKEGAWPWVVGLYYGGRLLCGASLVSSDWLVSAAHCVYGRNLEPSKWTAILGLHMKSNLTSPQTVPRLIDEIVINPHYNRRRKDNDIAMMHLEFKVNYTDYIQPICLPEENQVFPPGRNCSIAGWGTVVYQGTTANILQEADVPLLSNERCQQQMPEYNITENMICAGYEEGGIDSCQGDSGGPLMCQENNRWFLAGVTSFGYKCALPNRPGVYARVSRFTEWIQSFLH
# METHOD: Measurement of enteropeptidase inhibitory activity
# Type: biochemical
# EXPERIMENTAL SETUP: Dixon plot
Where a name gives a salt, the structure may show the parent alone.
Lab note — pKi values are minus log10 of concentrations in M.

INSERT INTO measurements (molecule, measurement_target, measurement_kind, obs_value) VALUES
  ('C[C@@H](Cc1ccc(C(=O)Oc2ccc(C(=N)N)cc2)o1)C(=O)N[C@@H](CC(N)=O)C(=O)O', 'recombinant human enteropeptidase (Homo sapiens (Human), UniProt P98073)', 'pKi', 8.70);

pKi recorded for this molecule, C[C@H](Cc1ccc(C(=O)Oc2ccc(C(=N)N)cc2)o1)C(=O)N[C@@H](CC(=O)O)C(=O)O [Compound A-44, trifluoroacetic acid salt] , is 9.48

pKi recorded for this molecule, CC(Cc1coc(C(=O)Oc2ccc(C(=N)N)cc2)c1)C(=O)N[C@@H](CC(=O)O)C(=O)O (stereo partly shown) [Compound A-67, trifluoroacetic acid salt] , is 9.28

pKi recorded for this molecule, CC(Cc1ccc(C(=O)Oc2ccc(C(=N)N)cc2F)s1)C(=O)O (stereo not shown) , is 9.38
